Assay: Oral pharmacokinetic interaction study of LUME and 97-78 in rats (LC-ESI-MS/MS, non-compartmental analysis)
Type: in vivo, male Sprague–Dawley rats
Conditions: male, Sprague-Dawley, rat, plasma, po, 10 mg/kg, control: LUME 10 mg/kg oral alone, rats n = 5, mean ± SD
endpoint label: half-life (h)

> print(dat)
                                   compound  units.of.measure  result
1  CCCCN(CCCC)CC(O)c1cc(Cl)cc2c1-c1ccc(Cl)cc1C2=Cc1ccc(Cl)cc1 (stereo not shown)                 h    46.9

====

Test: Oral pharmacokinetic interaction study of LUME and 97-78 in rats (LC-ESI-MS/MS, non-compartmental analysis)
Assay type: in vivo, male Sprague–Dawley rats
Settings: male, Sprague-Dawley, rat, plasma, po, 10 mg/kg, control: LUME 10 mg/kg oral alone, rats n = 5, mean ± SD
endpoint label: AUC(0-t) (ng·h/mL)

> print(dat)
                                   compound  endpoint.label  units.of.measure  result
1  CCCCN(CCCC)CC(O)c1cc(Cl)cc2c1-c1ccc(Cl)cc1C2=Cc1ccc(Cl)cc1 (stereo not shown) [LUME]        AUC(0-t)           ng·h/mL   16500
